Target: Glucocorticoid receptor (Homo sapiens, UniProt P04150)
Sequence (P04150 whole entry): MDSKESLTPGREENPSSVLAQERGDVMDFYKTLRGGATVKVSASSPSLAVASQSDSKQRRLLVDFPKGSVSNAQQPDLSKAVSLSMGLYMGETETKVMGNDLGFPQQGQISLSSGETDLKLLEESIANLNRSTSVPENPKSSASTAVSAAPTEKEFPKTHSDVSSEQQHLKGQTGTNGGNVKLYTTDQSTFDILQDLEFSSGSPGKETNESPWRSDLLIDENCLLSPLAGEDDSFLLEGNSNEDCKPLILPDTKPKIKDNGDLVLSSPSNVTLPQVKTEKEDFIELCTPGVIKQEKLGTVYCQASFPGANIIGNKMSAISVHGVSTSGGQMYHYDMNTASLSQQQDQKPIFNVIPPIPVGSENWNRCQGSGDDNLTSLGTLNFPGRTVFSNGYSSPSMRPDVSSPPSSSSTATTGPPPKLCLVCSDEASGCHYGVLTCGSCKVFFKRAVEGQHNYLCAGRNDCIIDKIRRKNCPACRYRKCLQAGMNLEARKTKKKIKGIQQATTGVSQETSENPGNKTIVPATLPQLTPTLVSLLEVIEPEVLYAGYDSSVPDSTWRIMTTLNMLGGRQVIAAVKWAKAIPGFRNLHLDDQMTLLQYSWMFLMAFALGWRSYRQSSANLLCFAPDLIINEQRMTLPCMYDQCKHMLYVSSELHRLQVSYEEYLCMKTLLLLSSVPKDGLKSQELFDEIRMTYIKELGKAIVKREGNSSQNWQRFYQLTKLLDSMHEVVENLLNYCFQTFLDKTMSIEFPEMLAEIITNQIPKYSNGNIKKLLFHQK
Assay protocol: Binding affinity to human recombinant glucocorticoid receptor by fluorescence polarization assay
A collection of compounds and their measured Ki
Could you give the number and then its unit, please?

As a guide, the following entries are already answered.
{"Sample smiles": "Cc1cccc(S(=O)(=O)N2CCC3=Cc4c(cnn4-c4ccc(F)cc4)C[C@]3(C(=O)c3ccccn3)C2)c1", "Obs value": "0.14 nM"}
{"Sample smiles": "O=C(c1ccccn1)[C@]12Cc3cnn(-c4ccc(F)cc4)c3C=C1CCN(S(=O)(=O)c1ccc(Cl)c(Cl)c1)C2", "Obs value": "0.64 nM"}
{"Sample smiles": "O=C(c1cnccn1)[C@]12Cc3cnn(-c4ccc(F)cc4)c3C=C1CCN(S(=O)(=O)c1ccc(C(F)(F)F)cc1)C2", "Obs value": "0.21 nM"}
{"Sample smiles": "O=C(c1ccccn1)[C@]12Cc3cnn(-c4ccc(F)cc4)c3C=C1CCN(S(=O)(=O)c1ccc(C(F)(F)F)cc1)C2", "Obs value": "0.16 nM"}
{"Sample smiles": "O=C(c1ccccn1)[C@]12Cc3cnn(-c4ccc(F)cc4)c3C=C1CCN(S(=O)(=O)c1ccc(C(F)(F)F)c(F)c1)C2", "Obs value": "0.29 nM"}
{"Sample smiles": "O=C(c1ccccn1)[C@]12Cc3cnn(-c4ccc(F)cc4)c3C=C1CCN(S(=O)(=O)c1cccc(Cl)c1)C2", "Obs value": "0.25 nM"}
{"Sample smiles": "O=C(c1cccnc1)[C@]12Cc3cnn(-c4ccc(F)cc4)c3C=C1CCN(S(=O)(=O)c1ccc(C(F)(F)F)cc1)C2", "Obs value": "0.83 nM"}
{"Sample smiles": "O=C(c1nccs1)[C@]12Cc3cnn(-c4ccc(F)cc4)c3C=C1CCN(S(=O)(=O)c1ccc(C(F)(F)F)cc1)C2", "Obs value": "0.23 nM"}

// fetch Glucocorticoid receptor (Homo sapiens, UniProt P04150) Ki for O=C(c1cocn1)[C@]12Cc3cnn(-c4ccc(F)cc4)c3C=C1CCN(S(=O)(=O)c1ccc(C(F)(F)F)cc1)C2
0.16 nM

Form: Entry = O=C(c1cccs1)[C@]12Cc3cnn(-c4ccc(F)cc4)c3C=C1CCN(S(=O)(=O)c1ccc(C(F)(F)F)cc1)C2 | System = Glucocorticoid receptor (Homo sapiens, UniProt P04150) | Ki = ____
0.41 nM

What reported Ki corresponds to O=C(c1ccccn1)[C@]12Cc3cnn(-c4ccc(F)cc4)c3C=C1CCN(S(=O)(=O)c1ccc(F)c(C(F)(F)F)c1)C2 on Glucocorticoid receptor (Homo sapiens, UniProt P04150)?
0.73 nM

Record lookup: for Glucocorticoid receptor (Homo sapiens, UniProt P04150), what Ki belongs to COc1cccc(S(=O)(=O)N2CCC3=Cc4c(cnn4-c4ccc(F)cc4)C[C@]3(C(=O)c3ccccn3)C2)c1 ?
0.19 nM

Return Ki measured with Glucocorticoid receptor (Homo sapiens, UniProt P04150) given this compound: O=C(c1ccccn1)[C@]12Cc3cnn(-c4ccc(F)cc4)c3C=C1CCN(S(=O)(=O)c1cccc(C(F)(F)F)c1)C2
0.1 nM

Notebook: pull reported Ki for Glucocorticoid receptor (Homo sapiens, UniProt P04150), entry Cc1ccccc1S(=O)(=O)N1CCC2=Cc3c(cnn3-c3ccc(F)cc3)C[C@]2(C(=O)c2ccccn2)C1
0.21 nM

Write down the reported Ki of O=C(c1cncs1)[C@]12Cc3cnn(-c4ccc(F)cc4)c3C=C1CCN(S(=O)(=O)c1ccc(C(F)(F)F)cc1)C2 , test system: Glucocorticoid receptor (Homo sapiens, UniProt P04150).
0.33 nM

Give Ki (Glucocorticoid receptor (Homo sapiens, UniProt P04150)) of the following compound: O=C(c1ccccn1)[C@]12Cc3cnn(-c4ccc(F)cc4)c3C=C1CCN(S(=O)(=O)c1ccc(F)c(F)c1)C2
0.22 nM

Identify the measured Ki of O=C(c1ccccn1)[C@]12Cc3cnn(-c4ccc(F)cc4)c3C=C1CCN(S(=O)(=O)c1ccc(F)cc1)C2 for Glucocorticoid receptor (Homo sapiens, UniProt P04150).
0.13 nM

Lab note: need Ki with Glucocorticoid receptor (Homo sapiens, UniProt P04150) for entry O=C(c1ncc[nH]1)[C@]12Cc3cnn(-c4ccc(F)cc4)c3C=C1CCN(S(=O)(=O)c1ccc(C(F)(F)F)cc1)C2 , please look it up.
0.47 nM

Write down the reported Ki of O=C(c1cscn1)[C@]12Cc3cnn(-c4ccc(F)cc4)c3C=C1CCN(S(=O)(=O)c1ccc(C(F)(F)F)cc1)C2 , test system: Glucocorticoid receptor (Homo sapiens, UniProt P04150).
0.14 nM

Find the measured Ki: item N#Cc1cccc(S(=O)(=O)N2CCC3=Cc4c(cnn4-c4ccc(F)cc4)C[C@]3(C(=O)c3ccccn3)C2)c1 , target or system Glucocorticoid receptor (Homo sapiens, UniProt P04150).
0.14 nM

What value of Ki on Glucocorticoid receptor (Homo sapiens, UniProt P04150) does O=C(c1ccco1)[C@]12Cc3cnn(-c4ccc(F)cc4)c3C=C1CCN(S(=O)(=O)c1ccc(C(F)(F)F)cc1)C2 have?
0.17 nM

Write down the reported Ki of Cc1ccc(S(=O)(=O)N2CCC3=Cc4c(cnn4-c4ccc(F)cc4)C[C@]3(C(=O)c3ccccn3)C2)cc1 , test system: Glucocorticoid receptor (Homo sapiens, UniProt P04150).
0.22 nM

====

Target: Glucocorticoid receptor (Homo sapiens, UniProt P04150)
Assay protocol: Antagonist activity at glucocorticoid receptor in human HepG2 cells assessed as inhibition of glucocorticoid-induced TAT activity after 24 hrs
Assay type: cell-based
Readout name: pKi
Give only the number. pKi is defined as minus log10 of concentration in molar units.

Examples with their reported pKi follow.
{"Sample smiles": "Cc1ccccc1S(=O)(=O)N1CCC2=Cc3c(cnn3-c3ccc(F)cc3)C[C@]2(C(=O)c2ccccn2)C1", "pKi": 7.73}
{"Sample smiles": "O=C(c1cscn1)[C@]12Cc3cnn(-c4ccc(F)cc4)c3C=C1CCN(S(=O)(=O)c1ccc(C(F)(F)F)cc1)C2", "pKi": 7.66}
{"Sample smiles": "COc1cccc(S(=O)(=O)N2CCC3=Cc4c(cnn4-c4ccc(F)cc4)C[C@]3(C(=O)c3ccccn3)C2)c1", "pKi": 7.94}
{"Sample smiles": "O=C(c1ccccn1)[C@]12Cc3cnn(-c4ccc(F)cc4)c3C=C1CCN(S(=O)(=O)c1cccc(Cl)c1)C2", "pKi": 7.96}
{"Sample smiles": "O=C(c1cccs1)[C@]12Cc3cnn(-c4ccc(F)cc4)c3C=C1CCN(S(=O)(=O)c1ccc(C(F)(F)F)cc1)C2", "pKi": 7.57}

Report pKi for O=C(c1ccccn1)[C@]12Cc3cnn(-c4ccc(F)cc4)c3C=C1CCN(S(=O)(=O)c1ccc(Cl)c(Cl)c1)C2 please.
7.85

What value of pKi has been recorded for this entry: O=C(c1ccco1)[C@]12Cc3cnn(-c4ccc(F)cc4)c3C=C1CCN(S(=O)(=O)c1ccc(C(F)(F)F)cc1)C2
7.51

Data request, read-out pKi, for O=C(c1ncc[nH]1)[C@]12Cc3cnn(-c4ccc(F)cc4)c3C=C1CCN(S(=O)(=O)c1ccc(C(F)(F)F)cc1)C2
7.28

Looking for the measured pKi of N#Cc1cccc(S(=O)(=O)N2CCC3=Cc4c(cnn4-c4ccc(F)cc4)C[C@]3(C(=O)c3ccccn3)C2)c1 , can you help?
7.82

Dear colleague, I am looking for the recorded pKi of the following compound: O=C(c1cncs1)[C@]12Cc3cnn(-c4ccc(F)cc4)c3C=C1CCN(S(=O)(=O)c1ccc(C(F)(F)F)cc1)C2
6.59

Which pKi reading was recorded for the compound O=C(c1ccccn1)[C@]12Cc3cnn(-c4ccc(F)cc4)c3C=C1CCN(S(=O)(=O)c1ccc(F)c(F)c1)C2 ?
8.12

Looking for the measured pKi of O=C(c1ccccn1)[C@]12Cc3cnn(-c4ccc(F)cc4)c3C=C1CCN(S(=O)(=O)c1ccc(F)cc1)C2 , can you help?
7.80

Given the entry O=C(c1ccccn1)[C@]12Cc3cnn(-c4ccc(F)cc4)c3C=C1CCN(S(=O)(=O)c1ccc(F)c(C(F)(F)F)c1)C2 , report its measured pKi.
8.01

For the compound O=C(c1ccccn1)[C@]12Cc3cnn(-c4ccc(F)cc4)c3C=C1CCN(S(=O)(=O)c1ccc(C(F)(F)F)c(F)c1)C2 , what pKi is on record?
7.96

Bench note: what pKi did O=C(c1cccnc1)[C@]12Cc3cnn(-c4ccc(F)cc4)c3C=C1CCN(S(=O)(=O)c1ccc(C(F)(F)F)cc1)C2 show?
6.82

Entry Cc1cccc(S(=O)(=O)N2CCC3=Cc4c(cnn4-c4ccc(F)cc4)C[C@]3(C(=O)c3ccccn3)C2)c1 : reported pKi = ?
8.17

Please report the recorded pKi for O=C(c1nccs1)[C@]12Cc3cnn(-c4ccc(F)cc4)c3C=C1CCN(S(=O)(=O)c1ccc(C(F)(F)F)cc1)C2 .
7.74

# input compound: O=C(c1ccccn1)[C@]12Cc3cnn(-c4ccc(F)cc4)c3C=C1CCN(S(=O)(=O)c1cccc(C(F)(F)F)c1)C2 ; wanted: its pKi
7.85

Dear colleague, I am looking for the recorded pKi of the following compound: O=C(c1cocn1)[C@]12Cc3cnn(-c4ccc(F)cc4)c3C=C1CCN(S(=O)(=O)c1ccc(C(F)(F)F)cc1)C2
7.20

What value of measured pKi is listed for O=C(c1cnccn1)[C@]12Cc3cnn(-c4ccc(F)cc4)c3C=C1CCN(S(=O)(=O)c1ccc(C(F)(F)F)cc1)C2 ?
7.01

Look at this compound and give its reported pKi. Cc1ccc(S(=O)(=O)N2CCC3=Cc4c(cnn4-c4ccc(F)cc4)C[C@]3(C(=O)c3ccccn3)C2)cc1
8.35

Where these numbers come from: ChEMBL document CHEMBL3734698
